Test system: OVCAR-4 ovarian
Experiment: NCI-60 one-dose screen, 48 h (100 = growth as untreated, 0 = no growth, -100 = all killed)
Conditions: 10 µM unless noted
This is part of a sample that, as a whole, favours compounds with a hit. Of some 83,000 tested, about 20% had one in any assay. Activity calls are given as the source filed them. Rule for the calls: active = growth percent below 10; inactive = the rest.
Parameter growth: see the listing below.

Record excerpt, results attached:
molecule: CCOC(=O)c1cnn(-c2nc(-c3ccc(F)cc3)c(C#N)c(N3CCOCC3)n2)c1N
assayed.target: OVCAR-4 ovarian
growth: 101% (inactive)

molecule: O=C(Nc1nc(-c2ccccc2)cs1)c1cc(-c2ccc(Br)cc2)nc2ccccc12
assayed.target: OVCAR-4 ovarian
growth: 57.6% (inactive)

molecule: CC(=O)Oc1ccc(O)cc1
assayed.target: OVCAR-4 ovarian
growth: 105% (inactive)

molecule: CC1CCCN(CCCCCOc2ccc3oc4ccccc4c(=O)c3c2)C1 (centres undefined)
assayed.target: OVCAR-4 ovarian
growth: 83.1% (inactive)

molecule: CC(=O)OCC1OC(OC2C(COC(C)=O)OC(OCCC[S-])C(OC(C)=O)C2OC(C)=O)C(OC(C)=O)C(OC(C)=O)C1OC(C)=O.[Au+].c1ccc(CN2[CH-]N(Cc3ccccc3)C(c3ccccc3)=C2c2ccccc2)cc1 (centres undefined)
assayed.target: OVCAR-4 ovarian
growth: 17.5% (inactive)

stdin: Please look at this molecule and report its growth: C=C1C(=O)O[C@H]2[C@H]1CC/C(C=Nc1c(N)cc(F)cc1Br)=C\CC[C@@]1(C)O[C@@H]21
stdout: 105% (inactive)

stdin: For the molecule O=c1c2ccccc2n(CC(O)CN2CCCC2)c2c(Br)cccc12 (centres undefined) , report growth.
stdout: 108% (inactive)

stdin: Provide only the value of recorded growth for COc1cc(C2=NN(c3ccccc3)C(c3cccc(Nc4ccnc5cc(C(F)(F)F)ccc45)c3)C2)cc(OC)c1OC (centres undefined)
stdout: 91% (inactive)

stdin: Tell me its growth given O=C(Nc1nc2ccc(C(F)(F)F)cc2s1)c1cc(Cl)ccc1O as the entry.
stdout: 20.2% (inactive)

* * *

Test system: NCI-H522 lung
Assay: NCI-60 one-dose screen, 48 h (100 = growth as untreated, 0 = no growth, -100 = all killed)
Settings: 10 µM unless noted
Compounds without any hit were thinned out: in the full panel of roughly 83,000, 20% have a hit.
Output rule met for records whose growth is lower than 70%, rule not met for records at or above 70%.

Observe how each entry below is paired with its result.
compound: O=C1NN(c2ccccc2)C(c2ccc(Cl)cc2)N2CCC[C@H]12 (stereo partly drawn)
label: rule not met
//
compound: C=C(C)[C@@H]1CC[C@]2(C(=O)OCCOCCOCC[P+](c3ccccc3)(c3ccccc3)c3ccccc3)CC[C@]3(C)[C@H](CC[C@@H]4[C@@]5(C)CC[C@H](OC(C)=O)C(C)(C)[C@@H]5CC[C@]43C)[C@@H]12
label: rule met
//
compound: CC1CCN(CCCCCOc2ccc3oc4ccccc4c(=O)c3c2)CC1
label: rule not met

stdin: Hello, I'm reviewing records and need to know if growth of NC(=O)c1ccc(C2C3=C(CCCC3=O)OC3=C2C(=O)c2ccccc2C3=O)cc1 (stereo not drawn) is below 70%. Could you check?
stdout: rule met

stdin: Regarding O=C(Nc1ccc2ncnc(Nc3cccc(C(F)(F)F)c3)c2c1)c1cccs1 , kindly confirm whether its growth is beneath 70%.
stdout: rule met

stdin: is_below(growth, 70%) for CCOC(=O)/C=C1\SC(=Nc2ccc(C#N)cc2)N(CCN2C(=O)/C(=C/C(=O)OCC)SC2=Nc2ccc(C#N)cc2)C1=O ?
stdout: rule met

stdin: API: query returns whether the compound falls strictly under 70% in growth. Query: CC(=O)Nc1ccc2c(c1)Cc1cc(F)ccc1-2
stdout: rule not met

* * *

Tested on: MDA-MB-231 breast
Assay: NCI-60 one-dose screen, 48 h
Conditions: 10 µM unless noted
The panel holds about 83,000 compounds, 20% with a hit somewhere; the sample as a whole holds those more often. The source made the active and inactive calls. How the source made its calls: active means growth percent below 10; inactive means the rest.
Bench note: report the call from YES for active, NO for inactive

Solved cases (3 shown):
molecule: OCCNc1nc(NCCO)nc(Nc2ccc(C3=NN(c4cc(Cl)cc(Cl)c4)C(c4ccc(C(F)(F)F)cc4)C3)cc2)n1 (stereo not given)
assayed.target: MDA-MB-231 breast
label: NO
//
molecule: COc1ccc(/C(=N\O)c2cc(C)c(OC)c(C)c2)cc1O
assayed.target: MDA-MB-231 breast
label: NO
//
molecule: Nc1c(C(=O)Nc2ccccn2)sc2nc3c(cc12)C(=O)CCC3
assayed.target: MDA-MB-231 breast
label: NO

stdin: What did this assay record as the result for COc1ccc2[nH]c(=O)c(/C=C/C(=O)c3ccccc3OC)cc2c1 ?
stdout: YES

stdin: Outcome? COc1ccc(-n2nc(C(=O)NCC(=O)O)nc2-c2ccccc2)cc1
stdout: NO

stdin: Tell me the recorded outcome of this test for CC(C)(C)c1ccc2oc(=O)n(SC(Cl)(Cl)Cl)c2c1 .
stdout: NO

stdin: I'd appreciate the recorded outcome for COc1ccc2cc(/C=C3\N=C(c4cc(OC)c(OC)c(OC)c4)OC3=O)c(OC)nc2c1 from this test.
stdout: NO

* * *

Test system: EKVX NSCLC
Test: NCI-60 one-dose screen, 48 h (100 = growth as untreated, 0 = no growth, -100 = all killed)
Settings: 10 µM unless noted
Compounds without any hit were thinned out: in the full panel of roughly 83,000, 20% have a hit. Activity calls are given as the source filed them. The calls were made as follows: active = growth percent below 10; inactive = the rest.
assay.endpoint: growth

// below: answered compounds
item.smiles: COc1ccc(-c2cs/c(=N\N=C\c3ccc(O)cc3O)n2/N=C/c2ccc(O)cc2O)cc1
assayed.target: EKVX NSCLC
growth: 7.59% (active)
//
item.smiles: CCN1CCN(c2ccc(NC(=O)Nc3nc4ccc(-c5ccccc5OC)cc4s3)cc2)CC1
assayed.target: EKVX NSCLC
growth: -68.4% (active)

stdin: Read the entry O=C(Nc1nc(-c2ccccc2)cs1)c1cc(-c2ccc(Br)cc2)nc2ccccc12 and write its reported growth.
stdout: 41.2% (inactive)

stdin: For COc1ccc(C(=O)c2cc(OC)c(OC)c(OC)c2)cc1OC(=O)CCl , write its growth.
stdout: 70.2% (inactive)

stdin: Item CSc1nc(-c2cccs2)c2c(N)[nH]nc2n1 : provide growth
stdout: 73.1% (inactive)

stdin: Quote growth reported for Cc1cccc(C)c1Nc1nnc(-c2ccc(F)cc2)o1 please.
stdout: 104% (inactive)

* * *

System: EKVX NSCLC
Assay: NCI-60 one-dose screen, 48 h (100 = growth as untreated, 0 = no growth, -100 = all killed)
Conditions: 10 µM unless noted
This is part of a sample that, as a whole, favours compounds with a hit. Of some 83,000 tested, about 20% had one in any assay.
assay.endpoint: growth (%)
Field format: number, assumed %, no unit text.

Consider the reported growth for these compounds:
compound: O=CN1N=C(c2ccc3c(c2)OCO3)CC1c1cccc(Nc2ccnc3cc(C(F)(F)F)ccc23)c1 (centres undefined)
assayed.target: EKVX NSCLC
quantitative.readout: 75.2
--
compound: CC(=O)OC[C@]12CC[C@@H](c3cn(Cc4ccc(Cn5cc([C@@H]6CC[C@]7(COC(C)=O)CC[C@]8(C)[C@H](CC[C@@H]9[C@@]%10(C)CC[C@H](OC(C)=O)C(C)(C)[C@@H]%10CC[C@]98C)[C@@H]67)nn5)cc4)nn3)[C@@H]1[C@H]1CC[C@@H]3[C@@]4(C)CC[C@H](OC(C)=O)C(C)(C)[C@@H]4CC[C@@]3(C)[C@]1(C)CC2
assayed.target: EKVX NSCLC
quantitative.readout: 104
--
compound: COc1cc(/C=C/CO)cc(OC)c1O[C@@H]1O[C@H](CO)[C@@H](O)[C@H](O)[C@H]1O
assayed.target: EKVX NSCLC
quantitative.readout: 95

For the next question, use this compound.
stdin: Query growth for [2H]c1cc2c(c([2H])c1F)/C(=C/c1[nH]c(C)c(C(=O)NCCN(CC)CC)c1C)C(=O)N2
stdout: 44.7

* * *

Reported growth values for the following compounds.
Test system: UACC-62 melanoma
Test: NCI-60 one-dose screen, 48 h (100 = growth as untreated, 0 = no growth, -100 = all killed)
Settings: 10 µM unless noted
This is part of a sample that, as a whole, favours compounds with a hit. Of some 83,000 tested, about 20% had one in any assay.
Quick note: give the figure in %, leave out the unit.

Reference set (10 entries):
compound: CCCCc1nc(Cl)c(C2CC(c3ccc(Cl)cc3)=NN2c2cc(Cl)cc(Cl)c2)[nH]1 (configuration not stated)
assayed.target: UACC-62 melanoma
reading.unit: %
quantitative.readout: 78.2
--
compound: COc1ccc(-c2cc(C(=O)N3N=C(c4ccc(N)cc4)CC3c3ccc(OC)cc3)c3cc(OC)ccc3n2)cc1 (configuration not stated)
assayed.target: UACC-62 melanoma
reading.unit: %
quantitative.readout: 40.4
--
compound: COc1ccc2c(c1)Oc1nc(N)c(C#N)c(N)c1C2Sc1ccc(O)cc1 (configuration not stated)
assayed.target: UACC-62 melanoma
reading.unit: %
quantitative.readout: 101
--
compound: O=c1[nH]c2ccccc2cc1-c1nc2ccncc2[nH]1
assayed.target: UACC-62 melanoma
reading.unit: %
quantitative.readout: 80.3
--
compound: OCCNc1nc(NCCO)nc(Nc2ccc(C3=NN(c4ccc(Cl)cc4)C(c4ccc(Cl)cc4)C3)cc2)n1 (configuration not stated)
assayed.target: UACC-62 melanoma
reading.unit: %
quantitative.readout: 77.9
--
compound: O=C1C(Cl)=C(NCCCN(CCCNC2=C(Cl)C(=O)c3ccccc3C2=O)C2=C(Cl)C(=O)c3ccccc3C2=O)C(=O)c2ccccc21
assayed.target: UACC-62 melanoma
reading.unit: %
quantitative.readout: 17.9
--
compound: COc1cccc2c1-c1ccccc1C2=O
assayed.target: UACC-62 melanoma
reading.unit: %
quantitative.readout: 33.3
--
compound: COc1ccc(-c2nnc(N3CCN(C(=O)CN4CCN(c5ccc(OC)cc5)CC4)CC3)nc2-c2ccc(OC)cc2)cc1
assayed.target: UACC-62 melanoma
reading.unit: %
quantitative.readout: -48.2
--
compound: C=C(C)[C@@H]1CC[C@]2(C(=O)NCCCO)CC[C@]3(C)[C@H](CC[C@@H]4[C@@]5(C)CCCNC(C)(C)[C@@H]5CC[C@]43C)[C@@H]12
assayed.target: UACC-62 melanoma
reading.unit: %
quantitative.readout: 83.8
--
compound: CC(=O)Nc1nc2c(c(N)c1C#N)C(c1cccc(Cl)c1)C1=C(CCCC1=O)N2c1sc2c(c1C#N)CCCC2 (configuration not stated)
assayed.target: UACC-62 melanoma
reading.unit: %
quantitative.readout: 59.8

stdin: Given the compound CCCCCCCc1n(Cc2ccc3ccccc3c2)c2ccccc2[n+]1Cc1ccc2ccccc2c1 , write its reported growth.
stdout: -89.6

stdin: Tell me growth reported for O=C(C[n+]1cccc2cc(Cl)ccc21)c1ccc2c(c1)CCCC2
stdout: 17.3

stdin: Return the recorded growth value; entry: COC(=O)/C=C1\SC(=Nc2cccc(OC)c2)N(CCc2c[nH]c3ccccc23)C1=O
stdout: 44.1

stdin: Please list growth recorded for the compound Cc1cc(C)nc(NS(=O)(=O)c2ccc(Nc3ccc4c5c(n(CCCN(C)C)c(=O)c4c3)-c3ccccc3C5=O)cc2)n1
stdout: 93.3

stdin: Report measured growth; entry is C=C1C(=O)O[C@H]2[C@H]1CC/C(C=Nc1c(N)cc(C(F)(F)F)cc1Br)=C\CC[C@@]1(C)O[C@@H]21
stdout: 4.73

stdin: Query growth for COc1cc(F)c(-c2nc3c(C)cccc3n2Cc2c(F)cccc2F)c(F)c1
stdout: 64.5

stdin: Look up and state reported growth for OCCNc1nc(NCCO)nc(Nc2ccc(C3=NN(c4cc(Cl)cc(Cl)c4)C(c4ccc(Cl)cc4)C3)cc2)n1 (configuration not stated)
stdout: 13.1
